Values from patent US9630958B2

Catalogue of molecules with associated pIC50
- system: Recombinant mTOR (FRAP1) (Homo sapiens)
- Sequence (P42345 1360-2549 limits assumed): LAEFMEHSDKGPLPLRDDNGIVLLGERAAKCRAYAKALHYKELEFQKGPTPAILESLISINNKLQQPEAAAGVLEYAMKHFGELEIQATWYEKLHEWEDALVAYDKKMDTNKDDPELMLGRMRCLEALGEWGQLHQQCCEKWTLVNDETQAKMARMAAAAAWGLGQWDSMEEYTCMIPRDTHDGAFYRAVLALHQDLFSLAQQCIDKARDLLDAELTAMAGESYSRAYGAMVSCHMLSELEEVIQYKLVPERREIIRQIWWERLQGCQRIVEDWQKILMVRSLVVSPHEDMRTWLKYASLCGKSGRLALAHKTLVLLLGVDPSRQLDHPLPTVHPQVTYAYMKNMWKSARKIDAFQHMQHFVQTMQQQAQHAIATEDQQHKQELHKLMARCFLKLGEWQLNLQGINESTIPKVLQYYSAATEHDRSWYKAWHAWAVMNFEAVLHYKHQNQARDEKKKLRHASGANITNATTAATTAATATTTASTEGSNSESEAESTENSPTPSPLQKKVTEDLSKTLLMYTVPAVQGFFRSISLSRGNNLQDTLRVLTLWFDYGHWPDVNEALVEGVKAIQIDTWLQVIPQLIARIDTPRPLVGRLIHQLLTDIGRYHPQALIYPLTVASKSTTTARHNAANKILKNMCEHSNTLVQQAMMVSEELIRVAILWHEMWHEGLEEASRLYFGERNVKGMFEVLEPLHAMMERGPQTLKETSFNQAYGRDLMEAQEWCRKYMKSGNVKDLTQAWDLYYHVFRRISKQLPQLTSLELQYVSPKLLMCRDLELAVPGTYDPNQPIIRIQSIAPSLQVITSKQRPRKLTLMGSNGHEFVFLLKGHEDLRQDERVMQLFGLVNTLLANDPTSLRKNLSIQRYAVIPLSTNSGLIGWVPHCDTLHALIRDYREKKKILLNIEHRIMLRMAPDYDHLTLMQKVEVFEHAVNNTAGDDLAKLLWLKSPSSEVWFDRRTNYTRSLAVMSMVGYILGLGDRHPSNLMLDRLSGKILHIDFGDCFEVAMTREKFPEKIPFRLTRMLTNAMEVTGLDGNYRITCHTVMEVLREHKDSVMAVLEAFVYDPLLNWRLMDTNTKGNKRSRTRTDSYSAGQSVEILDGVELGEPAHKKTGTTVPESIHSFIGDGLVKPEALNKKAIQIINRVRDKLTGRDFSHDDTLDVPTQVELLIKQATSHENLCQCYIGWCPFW
- method-description: mTOR in vitro kinase assay (TR-FRET, phosphorylation of GFP-4E-BP1)
- details: 8 μM ATP, 400 nM GFP-4E-BP1
- Description: Compounds were evaluated for mTOR activity using an in vitro kinase assay. mTOR activity is measured in vitro by determining the level of phosphorylation of the protein substrate 4EBP-1. The phosphorylation of GFP-4E-BP1 at threonine residue is recognized by Ab Tb-Anti-p4EBP1, which results in time resolved fluorescence energy transfer (TR-FRET) between GFP and Terbium in the Ab-Protein complex. […] FRET signal was read in Envision Multilabel Reader with the following filters: […]
pIC50: −log10 of the molar value.
endpoint-name: pIC50

- C[C@H]1COCCN1c1nc(Oc2ccc(C(=O)N(C)C)cc2)nc(-c2cnc(NC(=O)NC3CC3)s2)n1: > 6.00
- C[C@H]1CN(c2nc(Oc3ccc(C(=O)N(C)C)cc3)nc(-c3cnc(N)s3)n2)[C@@H](C)CO1: > 6.00
- C[C@H]1CN(c2nc(Oc3ccc(C(=O)N(C)C)cc3F)nc(-c3cnc(N)s3)n2)[C@@H](C)CO1: > 6.00
- C[C@H]1COCCN1c1nc(Oc2ccc(C(=O)N(C)C)cc2)nc(-c2ccc(N)nc2)n1: > 6.00

---

- system: PI3 Kinase alpha (p110 alpha/p85 alpha) (Homo sapiens, UniProt P42336)
- Sequence (P42336 whole entry): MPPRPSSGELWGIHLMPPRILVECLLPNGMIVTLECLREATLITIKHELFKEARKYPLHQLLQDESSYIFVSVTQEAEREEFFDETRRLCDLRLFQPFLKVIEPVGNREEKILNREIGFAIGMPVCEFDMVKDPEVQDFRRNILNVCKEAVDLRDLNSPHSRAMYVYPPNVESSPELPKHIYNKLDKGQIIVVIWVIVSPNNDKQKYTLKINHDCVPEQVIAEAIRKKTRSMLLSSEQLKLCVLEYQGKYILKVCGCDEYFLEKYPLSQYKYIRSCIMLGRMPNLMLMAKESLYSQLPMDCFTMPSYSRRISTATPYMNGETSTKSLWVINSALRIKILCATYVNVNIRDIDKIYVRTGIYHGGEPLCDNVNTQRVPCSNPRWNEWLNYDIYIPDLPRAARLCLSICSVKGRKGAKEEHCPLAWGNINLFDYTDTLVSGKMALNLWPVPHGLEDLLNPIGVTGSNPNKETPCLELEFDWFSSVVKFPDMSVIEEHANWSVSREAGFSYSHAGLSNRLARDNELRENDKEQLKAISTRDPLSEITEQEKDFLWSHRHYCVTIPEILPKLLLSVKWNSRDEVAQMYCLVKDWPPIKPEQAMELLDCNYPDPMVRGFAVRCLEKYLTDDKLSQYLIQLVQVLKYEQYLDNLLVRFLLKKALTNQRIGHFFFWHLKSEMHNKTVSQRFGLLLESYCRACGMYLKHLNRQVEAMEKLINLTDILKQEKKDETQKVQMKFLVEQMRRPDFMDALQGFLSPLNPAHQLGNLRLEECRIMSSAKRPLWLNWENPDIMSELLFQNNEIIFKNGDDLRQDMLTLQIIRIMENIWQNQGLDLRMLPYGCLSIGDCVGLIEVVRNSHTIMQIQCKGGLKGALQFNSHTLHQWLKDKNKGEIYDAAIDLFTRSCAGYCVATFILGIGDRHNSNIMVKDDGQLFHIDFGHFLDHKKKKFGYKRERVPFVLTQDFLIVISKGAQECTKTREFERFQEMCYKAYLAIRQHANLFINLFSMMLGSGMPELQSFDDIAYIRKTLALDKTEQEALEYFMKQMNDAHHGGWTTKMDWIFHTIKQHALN
- Sequence (P27986 whole entry partner): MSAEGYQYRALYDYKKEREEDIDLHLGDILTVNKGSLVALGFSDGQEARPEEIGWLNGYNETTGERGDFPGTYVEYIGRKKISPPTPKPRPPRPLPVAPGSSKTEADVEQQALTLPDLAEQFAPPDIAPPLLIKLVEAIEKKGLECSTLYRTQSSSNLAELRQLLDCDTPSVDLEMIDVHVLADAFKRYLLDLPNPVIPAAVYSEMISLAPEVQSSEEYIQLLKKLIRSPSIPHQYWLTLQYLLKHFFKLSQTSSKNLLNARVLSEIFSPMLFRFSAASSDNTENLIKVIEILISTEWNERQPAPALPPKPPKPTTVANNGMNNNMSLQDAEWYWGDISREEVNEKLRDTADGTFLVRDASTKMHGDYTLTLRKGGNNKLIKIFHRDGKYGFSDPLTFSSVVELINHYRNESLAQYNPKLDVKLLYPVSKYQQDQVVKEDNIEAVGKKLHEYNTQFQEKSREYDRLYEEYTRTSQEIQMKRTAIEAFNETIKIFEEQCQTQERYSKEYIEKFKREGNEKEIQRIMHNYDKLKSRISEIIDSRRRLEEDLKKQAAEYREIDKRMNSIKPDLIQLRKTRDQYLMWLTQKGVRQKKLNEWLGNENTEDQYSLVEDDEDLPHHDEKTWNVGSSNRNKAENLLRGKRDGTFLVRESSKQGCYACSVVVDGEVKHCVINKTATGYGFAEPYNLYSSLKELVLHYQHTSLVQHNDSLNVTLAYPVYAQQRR
- method-description: PI3K TR-FRET assay (Transcreener ADP2)
- details: PI3K alpha, 1 μM ATP, 50 μM PIP2
pIC50: −log10 of the molar value.
Catalogue of compounds with associated pIC50
endpoint-name: pIC50

- CS(=O)(=O)N1CCC(COc2nc(-c3cnc(N)s3)nc(N3CCOCC3)n2)C1 (stereo not drawn) [Compound 10197]: > 6.00
- C[C@H]1COCCN1c1nc(O[C@H]2CC[C@H](C(=O)N(C)C)CC2)nc(-c2cnc(N)s2)n1 [Compound 10139]: > 6.00
- C[C@@H]1CN(c2nc(Oc3ccc(C(=O)N(C)C)cc3F)nc(-c3ccc(N)nc3)n2)[C@@H](C)CO1 [Compound 10098]: > 6.00
- C[C@H]1COCCN1c1nc(Oc2ccc(C(=O)N(C)C)cc2)nc(-c2cnc(NC(=O)Nc3cccnc3)s2)n1 [Compound 10092]: > 6.00
- CN(C)C(=O)c1ccc(Oc2nc(-c3cnc(N)cc3C(F)(F)F)nc(N3CCOCC3)n2)cc1 [Compound 10015]: > 6.00
- C[C@@H]1COCCN1c1nc(Oc2ccc(C(=O)N(C)C)cc2F)nc(-c2ccc(N)nc2)n1 [Compound 10099]: > 6.00
- Cc1cc(Oc2nc(-c3ccc(N)nc3)nc(N3CCOCC3)n2)ccc1C(=O)N(C)C [Compound 10181]: > 6.00
- Cc1nc(N)sc1-c1nc(Oc2ccc(C(=O)N(C)C)cc2)nc(N2CCOCC2)n1 [Compound 10199]: > 6.00
- CNc1ncc(-c2nc(Oc3ccc(C(=O)N(C)C)cc3)nc(N3CCOCC3)n2)s1 [Compound 10007]: < 6.00
- C[C@H]1COCCN1c1nc(Oc2ccc(C(=O)N(C)C)cc2)nc(-c2ccc(N)nc2)n1 [Compound 10096]: > 6.00
- C[C@H]1CN(c2nc(Oc3ccc(C(=O)N(C)C)cc3)nc(-c3cnc(N)s3)n2)CCO1 [Compound 10127]: > 6.00
- C[C@@H]1CN(c2nc(Oc3ccc(C(=O)N(C)C)cc3)nc(-c3cnc(N)s3)n2)CCO1 [Compound 10073]: > 6.00
- CN(C)C(=O)Cc1ccc(Oc2nc(-c3cnc(N)nc3)nc(N3CCOCC3)n2)cc1 [Compound 10189]: > 6.00
- C[C@H]1CN(c2nc(Oc3ccc(C(=O)N(C)C)cc3F)nc(-c3cnc(N)s3)n2)[C@@H](C)CO1 [Compound 10153]: > 6.00
- C[C@H]1COCCN1c1nc(Oc2ccc(C(=O)N(C)C)cc2)nc(-c2cnc(N)nc2)n1 [Compound 10126]: > 6.00
- CN(C)C(=O)c1ccc(Oc2nc(-c3cnc(N)s3)nc(N3CCOCC34CCCC4)n2)c(F)c1 [Compound 10083]: > 6.00
- Nc1ccc(-c2nc(Oc3ccc4c(c3)CCC(=O)N4)nc(N3CCOCC3)n2)cn1 [Compound 10182]: > 6.00
- CS(=O)(=O)N1CCC(COc2nc(-c3cnc(N)s3)nc(N3CCOCC3)n2)CC1 [Compound 10194]: > 6.00
- C[C@H]1COCCN1c1nc(Oc2ccc(C(=O)N(C)C)cc2)nc(-c2cnc(N)cc2C(F)(F)F)n1 [Compound 10066]: > 6.00
- C[C@H]1OCCN(c2nc(Oc3ccc(C(=O)N(C)C)cc3F)nc(-c3cnc(N)s3)n2)[C@H]1C [Compound 10052]: > 6.00
- C[C@H]1COCCN1c1nc(O[C@H]2CC[C@H](C(=O)N(C)C)CC2)nc(-c2ccc3[nH]ncc3c2)n1 [Compound 10202]: < 5.00
- CS(=O)(=O)N1CCC(COc2nc(-c3ccc(N)nc3)nc(N3CCOCC3)n2)CC1 [Compound 10185]: > 6.00
- C[C@@H]1CN(c2nc(Oc3ccc(C(=O)N(C)C)cc3F)nc(-c3ccc4[nH]ncc4c3)n2)[C@H](C)CO1 [Compound 10162]: < 5.00
- C[C@H]1COCCN1c1nc(Oc2ccc(C(=O)N(C)C)cc2)nc(-c2cnc(N(C)C)s2)n1 [Compound 10143]: < 6.00
- CN(C)C(=O)c1ccc(Nc2nc(-c3cnc(N)s3)nc(N3CCOCC3)n2)cc1 [Compound 10196]: > 6.00
- CC(C(=O)N(C)C)c1ccc(Oc2nc(-c3cnc(N)s3)nc(N3CCOCC3)n2)cc1 (stereo not drawn) [Compound 10115]: > 6.00
- C[C@H]1COC[C@H](C)N1c1nc(Oc2ccc(C(=O)N(C)C)cc2)nc(-c2cnc(N)s2)n1 [Compound 10078]: > 6.00
- CC1COCCN1c1nc(Oc2ccc(C(=O)N(C)C)cc2)nc(-c2cnc(N)s2)n1 (stereo not drawn) [Compound 10006]: < 6.00
- C[C@@H]1CN(c2nc(Oc3ccc(C(=O)N(C)C)cc3F)nc(-c3cnc(N)s3)n2)C[C@H](C)O1 [Compound 10069]: < 6.00
- C[C@H]1COCCN1c1nc(Oc2ccc(C(=O)N(C)C)cc2F)nc(-c2cnc3[nH]ccc3c2)n1 [Compound 10103]: > 6.00

---

- system: PI3 Kinase alpha (p110 alpha/p85 alpha) (Homo sapiens, UniProt P42336)
- Construct: purchased Invitrogen
- method-description: PI3K TR-FRET assay (Transcreener ADP2)
- Format: biochemical
- details: 1 uM compound; read-out: PI3K % Inhib@1 uM
Catalogue of molecules with associated inhibition at 1 µM
endpoint-name: inhibition at 1 µM

• CN(C)C(=O)[C@H]1CC[C@H](Oc2nc(-c3ccc(N)nc3)nc(N3CCO[C@@H]4CCC[C@H]43)n2)CC1 [Compound 10148] = < 50%
• CN(C)C(=O)c1ccc(Oc2nc(-c3cnc(N)[nH]3)nc(N3CCOCC3)n2)cc1 [Compound 10124] = < 50%
• C[C@H]1CN(c2nc(Oc3ccc(C(=O)N(C)C)cc3)nc(-c3cnc(N)s3)n2)CCO1 [Compound 10127] = > 50%
• CN(C)C(=O)c1ccc(Oc2nc(-c3cnc(N)s3)nc(N3CCNC(=O)C3)n2)cc1 [Compound 10072] = < 50%
• C[C@@H]1CN(c2nc(Oc3ccc(C(=O)N(C)C)cc3F)nc(-c3ccc(N)nc3)n2)[C@@H](C)CO1 [Compound 10098] = > 50%
• CC[C@@H]1COCCN1c1nc(Oc2ccc(C(=O)N(C)C)cc2)nc(-c2cnc(N)s2)n1 [Compound 10082] = < 50%

---

- system: Recombinant mTOR (FRAP1) (Homo sapiens)
- method-description: mTOR in vitro kinase assay (TR-FRET, phosphorylation of GFP-4E-BP1)
- details: 8 μM ATP, 400 nM GFP-4E-BP1
Catalogue of compounds with associated IC50
endpoint-name: IC50

- C[C@H]1COCCN1c1nc(Oc2ccc(C(=O)N(C)C)cc2)nc(-c2cnc(N)s2)n1: < 1 µM
- C[C@H]1COCCN1c1nc(Oc2ccc(C(=O)N(C)C)cc2F)nc(-c2cnc(N)cc2C(F)(F)F)n1: < 1 µM
- C[C@H]1COCCN1c1nc(OC2CCN(C(=O)N(C)C)C2)nc(-c2cnc(N)s2)n1 (stereo partly shown): > 1 µM
- CN(C)C(=O)c1ccc(Oc2nc(-c3cnc(N)cc3C(F)(F)F)nc(N3CCOCC3)n2)c(F)c1: < 1 µM
- C[C@H]1COCCN1c1nc(Oc2ccc(C(=O)N(C)C)cc2)nc(-c2cnc(NC(=O)Nc3cccnc3)s2)n1: < 1 µM
- C[C@H]1CN(c2nc(Oc3ccc(C(=O)N(C)C)cc3F)nc(-c3cnc4[nH]ccc4c3)n2)[C@@H](C)CO1: < 1 µM
- CN(C)C(=O)c1ccc(Oc2nc(-c3cnc(N)s3)nc(N3CCSCC3)n2)cc1: > 3 µM
